# TESTED_SYSTEM: GST-tagged ROR gamma ligand binding domain (LBD) (Homo sapiens)
# Construct: purchased Invitrogen
# Sequence (P51449 269-508 limits assumed): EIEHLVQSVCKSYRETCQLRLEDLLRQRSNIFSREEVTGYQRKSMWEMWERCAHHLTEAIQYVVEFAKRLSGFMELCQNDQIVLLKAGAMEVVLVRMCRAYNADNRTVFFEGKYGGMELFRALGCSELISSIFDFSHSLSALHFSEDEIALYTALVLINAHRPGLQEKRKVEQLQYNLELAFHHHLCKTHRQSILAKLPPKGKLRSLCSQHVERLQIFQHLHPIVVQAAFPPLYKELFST
# METHOD_DESCRIPTION: TR-FRET assay for ROR gamma (LanthaScreen co-activator peptide recruitment)
# Format: biochemical
# PROTOCOL_CONDITIONS: compound concentration 1 μM; TR-FRET ratio 520/495, percent of control
Labelling field: enter t if recorded inhibition at 1 µM is less than 80%. Enter f if it equals or exceeds that cut-off.

Query: Consider the compound CCC(F)(F)c1ccc(CC(=O)Nc2ccc(-c3nccnc3N[C@@H](C)c3cccc(Cl)c3)cc2)cc1 . Is its inhibition at 1 µM strictly less than 80%?
Response: t

Query: Consider the compound CCC(F)(F)c1ccc(CC(=O)Nc2ccc(-c3nccnc3OCc3ccccc3)cc2)cc1 . Is its inhibition at 1 µM strictly less than 80%?
Response: t

Query: Consider the compound CCC(F)(F)c1ccc(CC(=O)Nc2ccc(-c3nccnc3-c3ccc(=O)n(C)c3)cc2)cc1 . Is its inhibition at 1 µM strictly less than 80%?
Response: t

Query: Consider the compound CCC(F)(F)c1ccc(CC(=O)Nc2ccc(-c3ncccc3-c3ccc(F)cc3)cc2)cc1 . Is its inhibition at 1 µM strictly less than 80%?
Response: t

Query: Consider the compound CCC(F)(F)c1ccc(CC(=O)Nc2ccc(-c3nccnc3-c3ccc(Cl)cc3F)cc2)cc1 . Is its inhibition at 1 µM strictly less than 80%?
Response: f

Query: Consider the compound CCC(F)(F)c1ccc(CC(=O)Nc2ccc(-c3nccnc3NCc3ccccc3)cc2)cc1 . Is its inhibition at 1 µM strictly less than 80%?
Response: t

Query: Consider the compound CC(O)C(F)(F)c1ccc(CC(=O)Nc2ccc(-c3nccnc3N3CCOCC3)cc2)cc1 (stereo not shown) . Is its inhibition at 1 µM strictly less than 80%?
Response: t

Query: Consider the compound CC(O)C(F)(F)c1ccc(CC(=O)Nc2ccc(-c3nccnc3OCc3ccccc3)cc2)cc1 (stereo not shown) . Is its inhibition at 1 µM strictly less than 80%?
Response: f

Query: Consider the compound CC(O)C(F)(F)c1ccc(CC(=O)Nc2ccc(-c3nccnc3O[C@@H](C)c3ccccc3Cl)cc2)cc1 (stereo partly shown) . Is its inhibition at 1 µM strictly less than 80%?
Response: f

Query: Consider the compound Cc1ccc(-c2nccnc2-c2ccc(NC(=O)Cc3ccc(C(F)(F)C(C)O)cc3)cc2)c(C)c1 (stereo not shown) . Is its inhibition at 1 µM strictly less than 80%?
Response: t

Query: Consider the compound CCC(F)(F)c1ccc(CC(=O)Nc2ccc(-c3nccnc3O[C@H](C)c3ccccc3)cc2)cc1 . Is its inhibition at 1 µM strictly less than 80%?
Response: t

Query: Consider the compound COCC(F)(F)c1ccc(CC(=O)Nc2ccc(-c3nccnc3-c3ccc(Cl)cc3)cc2)cc1 . Is its inhibition at 1 µM strictly less than 80%?
Response: t

Query: Consider the compound Cc1ncsc1CCOc1nccnc1-c1ccc(NC(=O)Cc2ccc(C(F)(F)C(C)O)cc2)cc1 (stereo not shown) . Is its inhibition at 1 µM strictly less than 80%?
Response: f

Query: Consider the compound CCC(F)(F)c1ccc(CC(=O)Nc2ccc(-c3nccnc3N3C[C@@H](C)O[C@@H](C)C3)cc2)cc1 . Is its inhibition at 1 µM strictly less than 80%?
Response: t

Query: Consider the compound CCC(F)(F)c1ccc(CC(=O)Nc2ccc(-c3nccnc3N3CCN(C(C)=O)CC3C)cc2)cc1 (stereo not shown) . Is its inhibition at 1 µM strictly less than 80%?
Response: t

Query: Consider the compound CC(O)C(F)(F)c1ccc(CC(=O)Nc2ccc(-c3nccnc3-c3ccc(F)cc3Cl)cc2)cc1 (stereo not shown) . Is its inhibition at 1 µM strictly less than 80%?
Response: t

Query: Consider the compound CCC(F)(F)c1ccc(CC(=O)Nc2ccc(-c3nccnc3-c3ccc(C#N)cc3)cc2)cc1 . Is its inhibition at 1 µM strictly less than 80%?
Response: t

Query: Consider the compound CC(O)C(F)(F)c1ccc(CC(=O)Nc2ccc(-c3nccnc3N[C@@H](C)c3ccc(Cl)cc3)cc2)cc1 (stereo partly shown) . Is its inhibition at 1 µM strictly less than 80%?
Response: f

Query: Consider the compound CCc1ccccc1-c1nccnc1-c1ccc(NC(=O)Cc2ccc(C(F)(F)[C@@H](C)O)cc2)cc1 . Is its inhibition at 1 µM strictly less than 80%?
Response: t

Query: Consider the compound CCC(F)(F)c1ccc(CC(=O)Nc2ccc(-c3cccnc3-c3ccc(Cl)cc3)cc2)cc1 . Is its inhibition at 1 µM strictly less than 80%?
Response: t

Query: Consider the compound CCC(F)(F)c1ccc(CC(=O)Nc2ccc(-c3nccnc3N[C@@H](C)c3ccc(F)cc3C)cc2)cc1 . Is its inhibition at 1 µM strictly less than 80%?
Response: f

Query: Consider the compound CC(O)C(F)(F)c1ccc(CC(=O)Nc2ccc(-c3nccnc3-c3ccc(F)cc3)cc2)cc1 (stereo not shown) . Is its inhibition at 1 µM strictly less than 80%?
Response: t

Query: Consider the compound CCC(F)(F)c1ccc(CC(=O)Nc2ccc(-c3nccnc3-c3cnn(C)c3)cc2)cc1 . Is its inhibition at 1 µM strictly less than 80%?
Response: t

Query: Consider the compound CC(O)C(F)(F)c1ccc(CC(=O)Nc2ccc(-c3nccnc3N[C@@H](C)c3ccccc3Cl)cc2)cc1 (stereo partly shown) . Is its inhibition at 1 µM strictly less than 80%?
Response: f

Values compiled from patent US10344024B2.
